Here, each record is paired with measured IC50 data.
Assay info: Cytotoxicity against human FR2 cells after 48 hrs by MTT assay
Format: cell-based
Recorded conditions: FR2, 48 h
Dear colleague, please return just the value in µM, with no unit written.

C[C@H]1[C@H](C)CC[C@]2(C(=O)O)CC[C@]3(C)C(=CC[C@@H]4[C@@]5(C)C/C(=C\c6ccccc6[N+](=O)[O-])C(=O)C(C)(C)[C@@H]5CC[C@]43C)[C@H]12    44
COc1cccc(/C=C2\C[C@]3(C)[C@H]4CC=C5[C@@H]6[C@@H](C)[C@H](C)CC[C@]6(C(=O)O)CC[C@@]5(C)[C@]4(C)CC[C@H]3C(C)(C)C2=O)c1    40
C[C@H]1[C@H](C)CC[C@]2(C(=O)O)CC[C@]3(C)C(=CC[C@@H]4[C@@]5(C)C/C(=C\c6cc(O)ccc6O)C(=O)C(C)(C)[C@@H]5CC[C@]43C)[C@H]12    0.8

Can you look up the measured IC50 of `C[C@H]1[C@H](C)CC[C@]2(C(=O)O)CC[C@]3(C)C(=CC[C@@H]4[C@@]5(C)C/C(=C\c6ccc(Br)cc6)C(=O)C(C)(C)[C@@H]5CC[C@]43C)[C@H]12` for me? 35

For `C[C@H]1[C@H](C)CC[C@]2(C(=O)O)CC[C@]3(C)C(=CC[C@@H]4[C@@]5(C)C/C(=C\c6ccc7ccccc7c6)C(=O)C(C)(C)[C@@H]5CC[C@]43C)[C@H]12` then? 40

For `C[C@H]1[C@H](C)CC[C@]2(C(=O)O)CC[C@]3(C)C(=CC[C@@H]4[C@@]5(C)C/C(=C\c6ccc(Cl)cc6)C(=O)C(C)(C)[C@@H]5CC[C@]43C)[C@H]12` then? 69

For `COc1cc(OC)c(OC)cc1/C=C1\C[C@]2(C)[C@H]3CC=C4[C@@H]5[C@@H](C)[C@H](C)CC[C@]5(C(=O)O)CC[C@@]4(C)[C@]3(C)CC[C@H]2C(C)(C)C1=O` then? 40

For `C[C@H]1[C@H](C)CC[C@]2(C(=O)O)CC[C@]3(C)C(=CC[C@@H]4[C@@]5(C)C/C(=C\c6cccc7ccccc67)C(=O)C(C)(C)[C@@H]5CC[C@]43C)[C@H]12` then? 68

For `C[C@H]1[C@H](C)CC[C@]2(C(=O)O)CC[C@]3(C)C(=CC[C@@H]4[C@@]5(C)C/C(=C\c6ccc([N+](=O)[O-])cc6)C(=O)C(C)(C)[C@@H]5CC[C@]43C)[C@H]12` then? 69

For `C[C@H]1[C@H](C)CC[C@]2(C(=O)O)CC[C@]3(C)C(=CC[C@@H]4[C@@]5(C)C/C(=C\c6ccccc6)C(=O)C(C)(C)[C@@H]5CC[C@]43C)[C@H]12` then? 70

For `COc1cc(/C=C2\C[C@]3(C)[C@H]4CC=C5[C@@H]6[C@@H](C)[C@H](C)CC[C@]6(C(=O)O)CC[C@@]5(C)[C@]4(C)CC[C@H]3C(C)(C)C2=O)cc(OC)c1OC` then? 35

For `C[C@H]1[C@H](C)CC[C@]2(C(=O)O)CC[C@]3(C)C(=CC[C@@H]4[C@@]5(C)C/C(=C\C=C\c6ccccc6)C(=O)C(C)(C)[C@@H]5CC[C@]43C)[C@H]12` then? 38

For `C[C@H]1[C@H](C)CC[C@]2(C(=O)O)CC[C@]3(C)C(=CC[C@@H]4[C@@]5(C)C/C(=C\c6ccc([N+](=O)[O-])cc6[N+](=O)[O-])C(=O)C(C)(C)[C@@H]5CC[C@]43C)[C@H]12` then? 70

For C[C@H]1[C@H](C)CC[C@]2(C(=O)O)CC[C@]3(C)C(=CC[C@@H]4[C@@]5(C)CC[C@H](O)C(C)(C)[C@@H]5CC[C@]43C)[C@H]12 [URSOLIC ACID] then? 31

For `C[C@H]1[C@H](C)CC[C@]2(C(=O)O)CC[C@]3(C)C(=CC[C@@H]4[C@@]5(C)C/C(=C\c6cccc(Cl)c6)C(=O)C(C)(C)[C@@H]5CC[C@]43C)[C@H]12` then? 45
